Each item that follows carries a reported Herbicidal action against [%] STEME.
- Tested on: STEME
- test_details: Post-emergence herbicidal action against STEME
- Assay type: in vivo, Stellaria media
- test_parameters: application rate 80 g/ha, rated visually about 3 weeks after treatment

| molecule | Herbicidal action against [%] STEME / % |
| --- | --- |
| N#Cc1cccc(C2=NOC(C(=O)NC3C=CC(C(=O)OCCCl)C3)(C(F)(F)F)C2)c1 (mixture of isomers) | 90 |
| O=C(C1C=CC(NC(=O)C2(C(F)(F)F)CC(c3cc(F)cc(F)c3)=NO2)C1)N1CCCO1 (mixture of isomers) | 90 |
| COC(=O)C1=CC[C@H](NC(=O)C2(C)CC(c3cccc(F)c3)=NO2)C1 (stereo partly shown) | 80 |
| COC(=O)C1C=CC(NC(=O)C2(C)CC(c3cccc(C#N)c3)=NO2)C1 (mixture of isomers) | 90 |
| CCOC(=O)C1C=CC(NC(=O)C2(C)CC(c3cccc(C#N)c3)=NO2)C1 (mixture of isomers) | 80 |
| COC(=O)C(NC(=O)C1C=CC(NC(=O)C2(C)CC(c3cc(F)cc(F)c3)=NO2)C1)C(C)C (mixture of isomers) | 90 |
| COCCOC(=O)[C@@H]1C=C[C@H](NC(=O)[C@@]2(C)CC(c3cc(F)cc(F)c3)=NO2)C1 | 90 |
